System: Hs578T complex spheroid growth, percent test/control
Procedure Details: Anticancer human tumor Hs578T cell line growth inhibition [AhR];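 also: luminescent viability signal as a proxy for spheroid growth; spheroids exposed to agents for one week after three days of growth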
Condition Notes: second compound 3.16 µM; first compound 0.0316 µM; hits give low values
Observed Property: viability, T/C (%)
State just the number; it will be interpreted in %.

In the examples that follow, each entry is paired with its recorded viability, T/C.
COc1cccc2c1C(=O)c1c(O)c3c(c(O)c1C2=O)CC(O)(C(=O)CO)CC3OC1CC(N)C(O)C(C)O1 (stereo not drawn) + Cc1cncc(-c2nc(NCCc3c[nH]c4ccccc34)c3ncn(C(C)C)c3n2)c1 | 62.1
Nc1ncn(C2CC(O)C(CO)O2)c(=O)n1 (stereo not drawn) + Cc1ccccc1N=Nc1ccc(NC(=O)c2ccnn2C)c(C)c1 | 85.9
Nc1ccn(C2OC(CO)C(O)C2(F)F)c(=O)n1 (stereo not drawn) + Cc1ccccc1N=Nc1ccc(NC(=O)c2ccnn2C)c(C)c1 | 48.7
O=C(c1cc(Cc2n[nH]c(=O)c3ccccc23)ccc1F)N1CCN(C(=O)C2CC2)CC1 + Cc1cncc(-c2nc(NCCc3c[nH]c4ccccc34)c3ncn(C(C)C)c3n2)c1 | 74.7
CC1COCCN1c1cc(-c2ccnn2C)c2ccnc(-c3ccn[nH]3)c2n1 (stereo not drawn) + CC(CO)NC(=O)c1cc(-c2ccc(Cl)cc2)nn(-c2cnn(C)c2)c1=O | 121
CC1COCCN1c1cc(C2(S(C)(=N)=O)CC2)nc(-c2ccnc3[nH]ccc23)n1 (stereo not drawn) + CC(CO)NC(=O)c1cc(-c2ccc(Cl)cc2)nn(-c2cnn(C)c2)c1=O | 111
COc1cc(C2c3cc4c(cc3C(OC3OC5COC(C)OC5C(O)C3O)C3COC(=O)C23)OCO4)cc(OC)c1O (stereo not drawn) + CC(CO)NC(=O)c1cc(-c2ccc(Cl)cc2)nn(-c2cnn(C)c2)c1=O | 116
CC1(C)CCC(CN2CCN(c3ccc(C(=O)NS(=O)(=O)c4ccc(NCC5CCOCC5)c([N+](=O)[O-])c4)c(Oc4cnc5[nH]ccc5c4)c3)CC2)=C(c2ccc(Cl)cc2)C1 + Cc1ccccc1N=Nc1ccc(NC(=O)c2ccnn2C)c(C)c1 | 94.7

Provide measured viability, T/C on Hs578T complex spheroid growth, percent test/control for CC1(C)CCC(CN2CCN(c3ccc(C(=O)NS(=O)(=O)c4ccc(NCC5CCOCC5)c([N+](=O)[O-])c4)c(Oc4cnc5[nH]ccc5c4)c3)CC2)=C(c2ccc(Cl)cc2)C1 + CC(CO)NC(=O)c1cc(-c2ccc(Cl)cc2)nn(-c2cnn(C)c2)c1=O please. 108

Name the value of viability, T/C reported for COc1cc(C2c3cc4c(cc3C(OC3OC5COC(C)OC5C(O)C3O)C3COC(=O)C23)OCO4)cc(OC)c1O (stereo not drawn) + Cc1cncc(-c2nc(NCCc3c[nH]c4ccccc34)c3ncn(C(C)C)c3n2)c1 when tested on Hs578T complex spheroid growth, percent test/control. 64

Report viability, T/C under test system Hs578T complex spheroid growth, percent test/control for Nc1ccccc1NC(=O)c1ccc(CNC(=O)OCc2cccnc2)cc1 + CC(CO)NC(=O)c1cc(-c2ccc(Cl)cc2)nn(-c2cnn(C)c2)c1=O . 115

Tell me viability, T/C of Cn1ncnc1C1c2n[nH]c(=O)c3cc(F)cc(c23)NC1c1ccc(F)cc1 (stereo not drawn) + Cc1cncc(-c2nc(NCCc3c[nH]c4ccccc34)c3ncn(C(C)C)c3n2)c1 when tested on Hs578T complex spheroid growth, percent test/control. 70.5

Enter measured viability, T/C, system Hs578T complex spheroid growth, percent test/control, for the compound shown: COc1cc(Nc2ncc3c(n2)-c2ccc(Cl)cc2C(c2c(F)cccc2OC)=NC3)ccc1C(=O)O + Cc1cncc(-c2nc(NCCc3c[nH]c4ccccc34)c3ncn(C(C)C)c3n2)c1 55.6
